# TEST_TARGET: T1, Recombinant human IL-18 (human, UniProt Q14116 37-193)
# T1 sequence: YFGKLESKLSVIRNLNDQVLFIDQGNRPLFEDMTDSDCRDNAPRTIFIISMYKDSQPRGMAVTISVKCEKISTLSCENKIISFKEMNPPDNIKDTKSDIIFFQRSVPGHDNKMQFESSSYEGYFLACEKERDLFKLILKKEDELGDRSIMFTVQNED
# METHOD: cell-based or functional assay
ASSAY_ENDPOINT: IC50, inhibition of IFN-γ release, human whole blood, recombinant human IL-18 (7 nM)
Field format: number, assumed nM, no unit text.

Study these solved cases before continuing.
BINDER	RESULT
MOR9464_N30G (antibody, human IgG1, lambda, L234A L235A, V domains shown) VH: EVQLVQSGAEVKKPGSSVKVSCKASGGTFGSYAISWVRQAPGQGLEWMGNIIPMTGQTYYAQKFQGRVTITADESTSTAYMELSSLRSEDTAVYYCARAAYHPLVFDNWGQGTLVTVSS VL: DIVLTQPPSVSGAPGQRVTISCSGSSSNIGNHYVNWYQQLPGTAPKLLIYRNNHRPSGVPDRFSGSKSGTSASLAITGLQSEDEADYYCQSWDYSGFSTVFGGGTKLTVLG	25.1
MOR9464_N30R (antibody, human IgG1, lambda, L234A L235A, V domains shown) VH: EVQLVQSGAEVKKPGSSVKVSCKASGGTFRSYAISWVRQAPGQGLEWMGNIIPMTGQTYYAQKFQGRVTITADESTSTAYMELSSLRSEDTAVYYCARAAYHPLVFDNWGQGTLVTVSS VL: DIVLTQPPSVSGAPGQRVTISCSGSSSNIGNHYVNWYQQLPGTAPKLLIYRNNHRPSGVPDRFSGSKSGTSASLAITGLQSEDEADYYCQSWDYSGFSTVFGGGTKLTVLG	10.1

Task: // fetch IC50, inhibition of IFN-γ release, human whole blood, recombinant human IL-18 (7 nM) given entry MOR9464_N30I (antibody, human IgG1, lambda, L234A L235A, V domains shown) VH: EVQLVQSGAEVKKPGSSVKVSCKASGGTFISYAISWVRQAPGQGLEWMGNIIPMTGQTYYAQKFQGRVTITADESTSTAYMELSSLRSEDTAVYYCARAAYHPLVFDNWGQGTLVTVSS VL: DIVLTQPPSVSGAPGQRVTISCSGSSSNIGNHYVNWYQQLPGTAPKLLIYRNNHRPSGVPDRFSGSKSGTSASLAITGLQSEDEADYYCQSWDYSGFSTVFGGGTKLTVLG
Output: 11.4
